All figures here come from ChEMBL document CHEMBL5725325.

- target.desc: Phosphatidylinositol 4,5-bisphosphate 3-kinase catalytic subunit gamma isoform (Homo sapiens, UniProt P48736)
- Sequence (P48736 whole entry, canonical isoform): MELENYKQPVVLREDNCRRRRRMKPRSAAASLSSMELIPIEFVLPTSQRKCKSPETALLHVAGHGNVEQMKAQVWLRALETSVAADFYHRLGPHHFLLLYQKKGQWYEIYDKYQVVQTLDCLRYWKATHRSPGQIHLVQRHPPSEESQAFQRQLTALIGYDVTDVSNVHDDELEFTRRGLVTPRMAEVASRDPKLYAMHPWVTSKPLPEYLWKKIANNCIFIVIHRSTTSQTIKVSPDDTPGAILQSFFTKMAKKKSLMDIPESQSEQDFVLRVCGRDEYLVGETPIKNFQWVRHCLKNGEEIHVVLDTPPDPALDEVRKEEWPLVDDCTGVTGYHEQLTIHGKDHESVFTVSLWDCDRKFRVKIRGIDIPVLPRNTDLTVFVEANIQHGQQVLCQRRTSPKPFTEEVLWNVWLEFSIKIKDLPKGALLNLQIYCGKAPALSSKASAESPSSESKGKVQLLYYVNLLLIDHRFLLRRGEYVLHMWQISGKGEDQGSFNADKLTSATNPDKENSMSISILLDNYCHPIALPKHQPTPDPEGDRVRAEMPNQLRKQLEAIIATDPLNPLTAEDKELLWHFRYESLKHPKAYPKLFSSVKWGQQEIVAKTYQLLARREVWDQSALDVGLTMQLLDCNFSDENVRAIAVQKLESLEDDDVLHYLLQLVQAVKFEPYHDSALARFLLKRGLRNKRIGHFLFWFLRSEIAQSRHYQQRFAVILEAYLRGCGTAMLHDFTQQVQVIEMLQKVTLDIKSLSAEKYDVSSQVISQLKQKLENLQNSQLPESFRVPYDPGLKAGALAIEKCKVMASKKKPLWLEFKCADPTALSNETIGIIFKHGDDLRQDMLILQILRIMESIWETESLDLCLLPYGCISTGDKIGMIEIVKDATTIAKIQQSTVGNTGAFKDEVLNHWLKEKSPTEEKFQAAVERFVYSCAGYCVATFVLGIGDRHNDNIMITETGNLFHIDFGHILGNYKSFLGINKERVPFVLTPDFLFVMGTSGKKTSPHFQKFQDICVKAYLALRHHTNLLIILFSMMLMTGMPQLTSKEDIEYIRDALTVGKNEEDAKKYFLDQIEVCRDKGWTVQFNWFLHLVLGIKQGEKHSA
- assay.protocol: PI 3-Kinase HTRF Assay: Briefly, the assay is a time resolved FRET assay that indirectly measures PIP3 product formed by the activity of a PI3-K. The kinase reaction is performed in a microtitre plate (e.g., a 384 well microtitre plate). The total reaction volume is approximately 20 ul per well. In the first step, each well receives 2 ul of test compound in 20% dimethylsulphoxide resulting in a 2% DMSO final concentration. Next, approximately 14.5 ul of a kinase/PIP2 mixture (diluted in 1x reaction buffer) is added per well for a final concentration of 0.25-0.3 ug/ml kinase and 10 uM PIP2. The plate is sealed and incubated for 15 minutes at room temperature. To start the reaction, 3.5 ul of ATP (diluted in 1x reaction buffer) is added per well for a final concentration of 10 uM ATP. The plate is sealed and incubated for 1 hour at room temperature. The reaction is stopped by adding 5 ul of Stop Solution per well and then 5 ul of Detection Mix is added per well. The plate is sealed, incubated for 1 hour at room temperature, and then read on an appropriate plate reader.
# maps each entry to its IC50

Nc1nc2cc(-c3ccc4ncc(C(=O)N5CCC(N6CCC(F)(F)C6)C5)n4c3)ccc2o1 (configuration not stated) ... < 10 µM

Proceeding to the next compound to report its IC50.
Value lookup for IC50; key = Nc1nc2cc(-c3ccc4ncn(-c5ccccc5)c4c3)ccc2o1 < 1 µM

====

- target.desc: Phosphatidylinositol 4,5-bisphosphate 3-kinase catalytic subunit delta isoform (Homo sapiens, UniProt O00329)
- Sequence (O00329 whole entry): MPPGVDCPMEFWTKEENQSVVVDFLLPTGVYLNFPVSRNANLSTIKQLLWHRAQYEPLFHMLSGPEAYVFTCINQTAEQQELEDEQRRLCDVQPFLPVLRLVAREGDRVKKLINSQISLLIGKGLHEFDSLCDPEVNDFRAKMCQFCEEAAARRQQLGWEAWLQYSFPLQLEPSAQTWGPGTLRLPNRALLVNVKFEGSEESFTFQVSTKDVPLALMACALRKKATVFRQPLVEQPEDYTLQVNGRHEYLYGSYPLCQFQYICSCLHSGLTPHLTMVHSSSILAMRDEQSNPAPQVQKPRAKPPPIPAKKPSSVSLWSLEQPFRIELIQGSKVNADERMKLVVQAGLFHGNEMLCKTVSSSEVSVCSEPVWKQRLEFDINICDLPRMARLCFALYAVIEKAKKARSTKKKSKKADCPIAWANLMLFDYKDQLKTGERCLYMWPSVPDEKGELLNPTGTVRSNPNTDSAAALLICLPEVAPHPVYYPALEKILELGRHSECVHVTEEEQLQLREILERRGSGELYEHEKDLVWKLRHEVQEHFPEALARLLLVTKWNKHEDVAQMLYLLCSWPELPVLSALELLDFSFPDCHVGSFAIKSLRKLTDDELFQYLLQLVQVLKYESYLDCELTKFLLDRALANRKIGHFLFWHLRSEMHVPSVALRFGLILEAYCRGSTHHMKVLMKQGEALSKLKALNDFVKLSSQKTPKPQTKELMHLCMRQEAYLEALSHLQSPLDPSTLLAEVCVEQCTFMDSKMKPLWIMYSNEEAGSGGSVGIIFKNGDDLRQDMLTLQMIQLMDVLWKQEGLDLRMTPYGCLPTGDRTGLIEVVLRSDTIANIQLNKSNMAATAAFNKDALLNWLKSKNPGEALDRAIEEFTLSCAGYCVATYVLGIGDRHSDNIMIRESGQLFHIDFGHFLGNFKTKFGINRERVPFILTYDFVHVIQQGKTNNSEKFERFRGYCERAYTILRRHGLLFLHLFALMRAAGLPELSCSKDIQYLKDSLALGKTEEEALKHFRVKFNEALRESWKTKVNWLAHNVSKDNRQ
- assay.protocol: PI 3-Kinase HTRF Assay: Briefly, the assay is a time resolved FRET assay that indirectly measures PIP3 product formed by the activity of a PI3-K. The kinase reaction is performed in a microtitre plate (e.g., a 384 well microtitre plate). The total reaction volume is approximately 20 ul per well. In the first step, each well receives 2 ul of test compound in 20% dimethylsulphoxide resulting in a 2% DMSO final concentration. Next, approximately 14.5 ul of a kinase/PIP2 mixture (diluted in 1x reaction buffer) is added per well for a final concentration of 0.25-0.3 ug/ml kinase and 10 uM PIP2. The plate is sealed and incubated for 15 minutes at room temperature. To start the reaction, 3.5 ul of ATP (diluted in 1x reaction buffer) is added per well for a final concentration of 10 uM ATP. The plate is sealed and incubated for 1 hour at room temperature. The reaction is stopped by adding 5 ul of Stop Solution per well and then 5 ul of Detection Mix is added per well. The plate is sealed, incubated for 1 hour at room temperature, and then read on an appropriate plate reader.
pIC50: −log10 of the molar value.
parameter: pIC50

Which pIC50 reading was recorded for the compound Nc1nc2cc(-c3ccc4ncc(C(=O)N5CCC(N6CCC(F)(F)C6)C5)n4c3)ccc2o1 (stereo unspecified) ? > 5.00
